Recorded values, source patent US9273003B2.

Documented IC50 across a set of compounds
Target: histone deacetylase activity (HeLa nuclear extract)
Experiment: HDAC fluorescent activity assay (Fluor de Lys, Biomol)
Type: biochemical
Conditions: IC50 allocated to ranges, read-out: HDAC activity

Compound: CC(C)[C@H](NCc1ccc(CCC(=O)NO)cc1)C(=O)OC1CCCC1 [Example 42]
IC50: > 1000 nM
--
Compound: CC(N[C@H](C(=O)OC1CCCC1)C1CCCCC1)c1ccc(/C=C/C(=O)NO)cc1 (stereo partly shown) [Example 84]
IC50: > 1000 nM
--
Compound: O=C(CCc1ccc(CN2CCNC(C(=O)O)C2)cc1)NO (stereo not shown) [Example 114]
IC50: > 1000 nM
--
Compound: O=C(CCc1cccc(CN[C@H](C(=O)OC2CCCC2)c2ccccc2)c1)NO [Example 51]
IC50: > 1000 nM
--
Compound: O=C(CCc1ccc(CN[C@H](C(=O)OC2CCCC2)c2ccccc2)cn1)NO [Example 65]
IC50: 101 to 1000 nM
--
Compound: O=C(/C=C/c1ccc(CN[C@H](C(=O)OC2Cc3ccccc3C2)C2CCCCC2)cn1)NO [Example 55]
IC50: < 100 nM
--
Compound: CC(C)(C)OC[C@H](NC1CCN(Cc2ccc(/C=C/C(=O)NO)cc2)CC1)C(=O)OC1CCCC1 [Example 81]
IC50: 101 to 1000 nM
--
Compound: O=C(/C=C/c1ccc(CN[C@H](CO)C(=O)OC2CCCC2)cc1)NO [Example 72]
IC50: 101 to 1000 nM
--
Compound: O=C(/C=C/c1cccc(CNCC2CCC(CN[C@H](C(=O)OC3CCCC3)C3CCCCC3)CC2)c1)NO (stereo partly shown) [Example 79]
IC50: > 1000 nM
--
Compound: CC(C)C[C@H](NS(=O)(=O)c1cccc(/C=C/C(=O)NO)c1)C(=O)OC1CCCC1 [Example 3]
IC50: < 100 nM
--
Compound: O=C(/C=C/c1cccc(S(=O)(=O)N[C@H](C(=O)OC2CCCC2)C2CCCCC2)c1)NO [Example 2]
IC50: < 100 nM
--
Compound: O=C(/C=C/c1ccc(CN[C@@H](C(=O)O)c2ccccc2)cc1)NO [Example 95]
IC50: 101 to 1000 nM
--
Compound: O=C(/C=C/c1ccc(CN[C@@H](C(=O)OC2CCCC2)C2CCCCC2)cc1)NO [Example 19]
IC50: 101 to 1000 nM
--
Compound: CC(C)C[C@H](NCc1ccc(CCC(=O)NO)cc1)C(=O)OC(C)(C)C [Example 41]
IC50: 101 to 1000 nM
--
Compound: O=C(/C=C/c1ccc(CN[C@H](C(=O)OC2Cc3ccccc3C2)C2CCCCC2)cc1)NO [Example 23]
IC50: 101 to 1000 nM
--
Compound: O=C(/C=C/c1cccc(CNCc2ccc(CN[C@H](C(=O)OC3CCCC3)C3CCCCC3)cc2)c1)NO [Example 73]
IC50: 101 to 1000 nM
--
Compound: CC(C)(C)OC[C@@H](NCc1ccc(/C=C/C(=O)NO)cc1)C(=O)O [Example 94]
IC50: 101 to 1000 nM
--
Compound: CC(C)(C)OC[C@H](NCc1ccc(/C=C/C(=O)NO)cc1)C(=O)O [Example 90]
IC50: 101 to 1000 nM
--
Compound: O=C(/C=C/c1ccc(CN[C@H](C(=O)OC2CC3CCC2C3)C2CCCCC2)cn1)NO (stereo partly shown) [Example 58]
IC50: < 100 nM
--
Compound: CC(C)C[C@H](NCc1ccc(CCC(=O)NO)cc1)C(=O)OC1CC2CCC1C2 (stereo partly shown) [Example 36]
IC50: 101 to 1000 nM
--
Compound: CCOC(=O)[C@@H](NCc1ccc(/C=C/C(=O)NO)cc1)C1CCCCC1 [Example 21]
IC50: < 100 nM
--
Compound: CC(C)C[C@H](NCc1ccc(/C=C/C(=O)NO)cn1)C(=O)OC(C)(C)C [Example 69]
IC50: 101 to 1000 nM
--
Compound: CC(C)C[C@H](NCc1ccc(CCC(=O)NO)nc1)C(=O)O[C@@H]1C[C@H](C)CC[C@H]1C(C)C [Example 67]
IC50: 101 to 1000 nM
--
Compound: O=C(/C=C/c1ccc(CN[C@H](C(=O)OC2CCCC2)c2ccccc2)cn1)NO [Example 60]
IC50: < 100 nM
--
Compound: CC(C)C[C@H](NCc1ccc(CCC(=O)NO)cn1)C(=O)OC(C)(C)C [Example 71]
IC50: > 1000 nM
--
Compound: O=C(/C=C/c1ccc(C(=O)N[C@H](C(=O)OC2CCCC2)C2CCCCC2)cc1)NO [Example 7]
IC50: 101 to 1000 nM
--
Compound: CC[C@H](C)[C@H](NCc1ccc(CCC(=O)NO)cc1)C(=O)O [Example 109]
IC50: > 1000 nM
--
Compound: CC(C)C[C@H](NCc1ccc(CNCc2ccc(/C=C/C(=O)NO)cc2)cc1)C(=O)OC(C)(C)C [Example 76]
IC50: < 100 nM
--
Compound: O=C(/C=C/c1ccc(CN2CCC(CN[C@H](C(=O)OC3CCCC3)C3CCCCC3)CC2)cc1)NO [Example 83]
IC50: 101 to 1000 nM
--
Compound: CC(C)C[C@H](NCc1ccc(CCC(=O)NO)cc1)C(=O)O [Example 97]
IC50: < 100 nM
--
Compound: CC(C)C[C@@H](NCc1ccc(/C=C/C(=O)NO)cc1)C(=O)OC1CCCC1 [Example 18]
IC50: 101 to 1000 nM
--
Compound: CC(C)[C@H](NCc1ccc(CCC(=O)NO)cc1)C(=O)OC(C)(C)C [Example 47]
IC50: > 1000 nM
--
Compound: CC(C)C[C@H](NCc1ccc(CCC(=O)NO)nc1)C(=O)O [Example 110]
IC50: 101 to 1000 nM
--
Compound: O=C(/C=C/c1ccc(CN[C@@H](C(=O)O)C2CCCCC2)cc1)NO [Example 93]
IC50: 101 to 1000 nM
